All figures here come from patent US20060160810A1.

The following compounds are shown together with reported pIC50 values.
# target.entity: human recombinant PDE5 (Homo sapiens)
# test.method.notes: Phosphodiesterase [3H] cGMP-SPA enzyme assay (inhibition of PDE5 in vitro)
# cond: human recombinant PDE5 expressed in a bacculovirus system; substance concentration at which the reaction rate is reduced by 50%; read-out: PDE V IC50
# Experimental: To test the inhibiting action, the “Phosphodiesterase [^3H] cGMP-SPA enzyme assay” from Amersham Life Science was used. The test was carried out according to the manufacturer's test protocol. Use was made of human recombinant PDE5 which was expressed in a bacculovirus system. The substance concentration at which the reaction rate is reduced by 50% was measured.
pIC50: −log10 of the molar value.
measured.endpoint: pIC50

• CCCc1nc(C)c2c(=O)[nH]c(-c3cc(S(=O)(=O)NCCNCC)ccc3OCC)nn12 = 7.72
• CCCc1nc(C)c2c(=O)[nH]c(-c3cc(S(=O)(=O)N4CCNCC4)ccc3OCC)nn12 = 8.38
• CCCc1nc(C)c2c(=O)[nH]c(-c3cc(S(=O)(=O)NCCN)ccc3OCC)nn12 = 8.62
• CCCc1nc(C)c2c(=O)[nH]c(-c3cc(S(=O)(=O)N4CC[N+]([O-])(CC)CC4)ccc3OCC)nn12 = 7.72
